- measurement_target: human PD-L1 (human, UniProt Q9NZQ7 19-290)
- Sequence (Q9NZQ7 19-290): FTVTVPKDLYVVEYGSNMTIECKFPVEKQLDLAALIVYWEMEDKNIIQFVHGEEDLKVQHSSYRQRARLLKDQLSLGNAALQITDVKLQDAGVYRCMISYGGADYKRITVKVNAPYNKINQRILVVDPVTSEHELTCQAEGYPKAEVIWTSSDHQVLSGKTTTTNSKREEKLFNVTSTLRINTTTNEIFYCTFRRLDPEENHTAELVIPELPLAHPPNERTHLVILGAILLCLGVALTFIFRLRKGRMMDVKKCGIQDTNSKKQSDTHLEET
- experimental_details: cell-based or functional assay
assay_metric: Fold Increase over WT CD80-IgV-Fc, Jurkat/IL2 + CHO/OKT3/PD-L1 Reporter Assay (fold)
Supply the numeric figure in fold, leaving out any unit text.

Query (binder): wild-type CD80 IgV-Fc (inert) with GSG4S linker, Example 16 (Fc fusion, also called CD80 WT IgV-Fc) VIHVTKEVKEVATLSCGHNVSVEELAQTRIYWQKEKKMVLTMMSGDMNIWPEYKNRTIFDITNNLSIVILALRPSDEGTYECVVLKYEKDAFKREHLAEVTLSVKADGSGGGGSEPKSSDKTHTCPPCPAPEAEGAPSVFLFPPKPKDTLMISRTPEVTCVVVDVSHEDPEVKFNWYVDGVEVHNAKTKPREEQYNSTYRVVSVLTVLHQDWLNGKEYKCKVSNKALPAPIEKTISKAKGQPREPQVYTLPPSREEMTKNQVSLTCLVKGFYPSDIAVEWESNGQPENNYKTTPPVLDSDGSFFLYSKLTVDKSRWQQGNVFSCSVMHEALHNHYTQKSLSLSPG ; field requested: Fold Increase over WT CD80-IgV-Fc, Jurkat/IL2 + CHO/OKT3/PD-L1 Reporter Assay
1
